- System: NCI-H460 lung
- assay.summary: NCI tumour cell line growth inhibition, 48 h

- smiles.record: "COc1cccc(-c2cc(=O)c3cc(N4CCOCC4)ccc3[nH]2)c1"
  TGI: "> 100 µM"
- smiles.record: "NC(=S)N/N=C1\\c2ccccc2-c2c(F)c(F)c(F)c(F)c21"
  TGI: "24.7 µM"
- smiles.record: "CC(=O)O[C@H]1CC[C@H]2[C@@H]3CCC4=CC(=O)C=C[C@]4(O)[C@H]3CC[C@]12C"
  TGI: "> 100 µM"
- smiles.record: "CCn1c2ccccc2c(=O)c2c(OC)ccc(OC)c21"
  TGI: "> 100 µM"
- smiles.record: "Cn1c(=O)c2nc3c(=O)n(C)c(=O)n(CC(N)=O)c3nc2n(C)c1=O"
  TGI: "> 100 µM"

Numbers sourced from PubChem BioAssay (NCI).
